Reported inhibition values follow for various compounds
PROTOCOL SUMMARY: Inhibition of CDK2/Cyclin A at 100 uM
Lab book: enter the figure in %, no units written.

Please review the following examples before continuing.
[[record]]
compound = "CC1(C)OC2OC(COc3nc(N)nc4[nH]cnc34)C3OC(C)(C)OC3C2O1 (configuration not stated)"
endpoint = "inhibition"
numeric_result = 4

[[record]]
compound = "Nc1nc(OCC(O)CO)c2nc[nH]c2n1 (configuration not stated)"
endpoint = "inhibition"
numeric_result = 33


For COC1OC(COc2nc(N)nc3[nH]cnc23)C2OC(C)(C)OC12 (configuration not stated) , what is its reported inhibition? 16

Record request: inhibition value, item Nc1nc(OC[C@@H]2COC3(CCCCC3)O2)c2nc[nH]c2n1 29

Quick one: inhibition of Nc1nc(OC[C@@H]2CCC(=O)N2)c2nc[nH]c2n1 ? 15

Fill blank: measured inhibition of the compound Nc1nc(OCC2CCCNC2)c2nc[nH]c2n1 (configuration not stated) is ____. 64

For Nc1nc(OCc2ccccn2)c2nc[nH]c2n1 , what is its reported inhibition? 43

----------
PROTOCOL SUMMARY: Half life in iv dosed rat
Format: ADME, organism-based
RECORDED CONDITIONS: in vivo
Let's look at some compounds and their measured half-life.
Please state the figure in h; there is no need to write the unit.

The following compounds have reported results that may help.
[[record]]
test_smiles = "CC1(N2CCC(c3cc(-c4ccc(F)cc4Cl)c4c(c3)N(c3c(Cl)cccc3Cl)C(=O)NC4)CC2)CC1"
numeric_result = 1.9

[[record]]
test_smiles = "CCC1(N2CCC(c3cc(-c4ccc(F)cc4Cl)c4c(c3)N(c3c(Cl)cccc3Cl)C(=O)NC4)CC2)CC1"
numeric_result = 2


Now consider the entry below.
half-life lookup needed for CC1(N2CCC(c3cc(-c4ccc(F)cc4Cl)c4c(c3)N(c3c(Cl)cccc3Cl)C(=O)NC4)CC2)CCC1 , thanks. 1.6

----------
PROTOCOL SUMMARY: Inhibition of CDK2/Cyclin A at 100 uM
Values of inhibition greater than or equal to 40% map to T; values below map to F.

[[record]]
compound = "COc1nc(N)nc2nc[nH]c12"
group_label = "F"

[[record]]
compound = "CC1(C)OC[C@H](COc2nc(N)nc3[nH]cnc23)O1"
group_label = "F"

[[record]]
compound = "CC(=O)COc1nc(N)nc2[nH]cnc12"
group_label = "F"

[[record]]
compound = "Nc1nc(OCc2cccnc2)c2nc[nH]c2n1"
group_label = "T"

[[record]]
compound = "CCOc1nc(N)nc2[nH]cnc12"
group_label = "T"


# input for lookup
Tell me whether inhibition is at least 40% here: Nc1nc(OCC2CCCCO2)c2nc[nH]c2n1 (configuration not stated) T

----------
STUDY TARGET: Tyrosine-protein kinase Lck (Homo sapiens, UniProt P06239)
Sequence (P06239 whole entry): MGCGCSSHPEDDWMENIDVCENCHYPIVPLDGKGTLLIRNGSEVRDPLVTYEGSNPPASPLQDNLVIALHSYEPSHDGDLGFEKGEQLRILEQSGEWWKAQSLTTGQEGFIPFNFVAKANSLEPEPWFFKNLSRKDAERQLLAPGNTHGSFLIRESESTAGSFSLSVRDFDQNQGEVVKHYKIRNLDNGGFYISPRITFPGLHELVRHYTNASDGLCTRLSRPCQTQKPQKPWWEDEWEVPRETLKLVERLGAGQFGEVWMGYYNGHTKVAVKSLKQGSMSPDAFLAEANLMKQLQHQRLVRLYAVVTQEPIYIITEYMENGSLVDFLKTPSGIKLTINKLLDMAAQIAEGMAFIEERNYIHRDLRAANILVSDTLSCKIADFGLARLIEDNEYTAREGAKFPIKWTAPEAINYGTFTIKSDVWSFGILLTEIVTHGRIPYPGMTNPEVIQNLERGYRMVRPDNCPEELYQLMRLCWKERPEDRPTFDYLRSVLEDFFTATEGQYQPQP
ENDPOINT: IC50
Don't forget the unit after the number, please.

[[record]]
test_smiles = "O=C(Nc1ccccc1Br)c1nc2ccccc2n2cncc12"
result = "60 nM"


// query IC50 value for entry O=C(Nc1c(Cl)cccc1Cl)c1nc2ccccc2n2cncc12 810 nM

----------
Quick list: inhibition per entry.
PROTOCOL SUMMARY: Inhibition of CDK2/Cyclin A at 100 uM
Please reply with the bare figure in % and do not write the unit itself.

[[record]]
molecule = "Nc1nc(OC[C@H]2CCC(=O)N2)c2nc[nH]c2n1"
endpoint = "inhibition"
units_of_measure = "%"
numeric_result = 35

[[record]]
molecule = "Nc1nc(OCC2COc3ccccc3O2)c2nc[nH]c2n1 (centres undefined)"
endpoint = "inhibition"
units_of_measure = "%"
numeric_result = 52

[[record]]
molecule = "COCC(COc1nc(N)nc2[nH]cnc12)OC (centres undefined)"
endpoint = "inhibition"
units_of_measure = "%"
numeric_result = 41


Attention now turns to another entry.
Sample Nc1nc(OCC2CCNCC2)c2nc[nH]c2n1 — what was its inhibition? 43

----------
Entries and their measured pIC50 follow.
STUDY TARGET: UniProt:P06493
Sequence (P06493 whole entry): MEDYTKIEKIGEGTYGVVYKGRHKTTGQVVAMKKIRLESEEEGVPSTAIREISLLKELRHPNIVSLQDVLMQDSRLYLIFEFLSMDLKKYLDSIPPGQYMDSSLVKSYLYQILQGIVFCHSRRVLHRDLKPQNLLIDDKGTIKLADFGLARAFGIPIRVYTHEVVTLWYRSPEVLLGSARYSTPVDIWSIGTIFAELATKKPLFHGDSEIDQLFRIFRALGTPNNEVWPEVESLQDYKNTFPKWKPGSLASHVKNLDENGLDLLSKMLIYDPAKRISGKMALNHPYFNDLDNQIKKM
pIC50: −log10 of the molar value.

Check out these entries, answers already filled in.
[[record]]
compound = "CC(C)(C)c1ccc2c(c1)NC(=O)/C2=N\\Nc1ccc(S(N)(=O)=O)cc1"
result = "< 6.00"

[[record]]
compound = "NS(=O)(=O)c1ccc(NN=C2C(=O)Nc3cc(Oc4ccccc4)ccc32)cc1"
result = "< 6.00"

[[record]]
compound = "NS(=O)(=O)c1ccc(NN=C2C(=O)Nc3cccc(OCCc4ccncc4)c32)cc1"
result = 6.54

[[record]]
compound = "Cc1cccc2c1NC(=O)/C2=C\\Nc1ccc(S(N)(=O)=O)cc1"
result = "< 6.00"

[[record]]
compound = "Cc1cc(C)c2c(c1)/C(=C/Nc1ccc(S(N)(=O)=O)cc1)C(=O)N2"
result = "< 6.00"

[[record]]
compound = "NS(=O)(=O)c1ccc(N/C=C2\\C(=O)Nc3ccc4ncsc4c32)cc1 [GW297361X]"
result = 7.54


Please look at the following compound next.
Look up pIC50 with UniProt:P06493 for this compound: Cc1cc(Cl)cc2c1NC(=O)/C2=C\Nc1ccc(S(N)(=O)=O)cc1 < 6.00

----------
Each entry below carries its measured IC50, system: UniProt:P00533.
// note: answer is a bare numeric in nM

Answered examples (6):
[[record]]
test_smiles = "COc1ccc2ncnc(Nc3ccccc3)c2c1"
endpoint = "IC50"
units_of_measure = "nM"
numeric_result = 56.2

[[record]]
test_smiles = "COc1ccc(CNc2cc3c(Nc4cccc(Br)c4)ncnc3cn2)cc1"
endpoint = "IC50"
units_of_measure = "nM"
numeric_result = 2.34

[[record]]
test_smiles = "COc1ccc(Nc2ncnc3ccncc23)c(N)c1"
endpoint = "IC50"
units_of_measure = "nM"
numeric_result = 676

[[record]]
test_smiles = "CNc1ccc2ncnc(Nc3cccc(Br)c3)c2c1"
endpoint = "IC50"
units_of_measure = "nM"
numeric_result = 4.07

[[record]]
test_smiles = "CN(C)c1cccc(Nc2ncnc3ccncc23)c1N"
endpoint = "IC50"
units_of_measure = "nM"
numeric_result = 1820

[[record]]
test_smiles = "CC(=O)Nc1c(Br)cccc1Nc1ncnc2ccncc12"
endpoint = "IC50"
units_of_measure = "nM"
numeric_result = 29.5


Could you now consider this next compound?
Missing value: IC50, UniProt:P00533, entry O=C(O)CCCNc1c(Br)cccc1Nc1ncnc2ccncc12 . Fill in? 0.282

----------
PROTOCOL SUMMARY: Inhibition of CDK2/Cyclin A
Parameter: IC50. Scope: all listed entries.
Enter your answer as a number in µM; do not include the unit.

[[record]]
compound = "Nc1nc(OCC2=CCCCC2)c2nc[nH]c2n1"
numeric_result = 22

[[record]]
compound = "C=C(COc1nc(N)nc2nc[nH]c12)c1ccccc1"
numeric_result = 34

[[record]]
compound = "Nc1nc(OCc2ccccc2)c2nc[nH]c2n1 [6-O-BENZYLGUANINE]"
numeric_result = 35

[[record]]
compound = "C#CCOc1nc(N)nc2[nH]cnc12"
numeric_result = 90

[[record]]
compound = "CCC(COc1nc(N)nc2[nH]cnc12)(OC)OC"
numeric_result = 20


--- query ---
Look up IC50 for this compound: C=CCCCCOc1nc(N)nc2[nH]cnc12 47

----------
Quick record: IC50, Epidermal growth factor receptor (Homo sapiens, UniProt P00533).
Number plus unit, in that order.

Some molecules with known IC50 results, for comparison:
[[record]]
test_smiles = "Fc1cc2c(Nc3cccc(Br)c3)ncnc2cn1"
result = "126 nM"

[[record]]
test_smiles = "CNc1cc2ncnc(Nc3cccc(Br)c3)c2cc1[N+](=O)[O-]"
result = "69.2 nM"


Could you now consider this next molecule?
# get_value(readout= IC50, system= Epidermal growth factor receptor (Homo sapiens, UniProt P00533)) for COc1ccc2ncnc(Nc3ccccc3)c2c1 120 nM

----------
Measured IC50, listed per entry for reference.
PROTOCOL SUMMARY: Inhibition of CDK2/Cyclin A
Provide only the numeric value, understood in µM.

The following compounds have reported results that may help.
[[record]]
test_smiles = "Nc1nc(OCC2CCCC2)c2nc[nH]c2n1"
endpoint = "IC50"
units_of_measure = "µM"
numeric_result = 21

[[record]]
test_smiles = "CC(C)COc1nc(N)nc2[nH]cnc12"
endpoint = "IC50"
units_of_measure = "µM"
numeric_result = 42


# input for lookup
Could you tell me which IC50 is on file for C=CCOc1nc(N)nc2nc[nH]c12 ? 78

----------
Recorded pIC50 values for a group of compounds are listed next.
STUDY TARGET: Epidermal growth factor receptor (Homo sapiens)
Sequence (P00533 whole entry): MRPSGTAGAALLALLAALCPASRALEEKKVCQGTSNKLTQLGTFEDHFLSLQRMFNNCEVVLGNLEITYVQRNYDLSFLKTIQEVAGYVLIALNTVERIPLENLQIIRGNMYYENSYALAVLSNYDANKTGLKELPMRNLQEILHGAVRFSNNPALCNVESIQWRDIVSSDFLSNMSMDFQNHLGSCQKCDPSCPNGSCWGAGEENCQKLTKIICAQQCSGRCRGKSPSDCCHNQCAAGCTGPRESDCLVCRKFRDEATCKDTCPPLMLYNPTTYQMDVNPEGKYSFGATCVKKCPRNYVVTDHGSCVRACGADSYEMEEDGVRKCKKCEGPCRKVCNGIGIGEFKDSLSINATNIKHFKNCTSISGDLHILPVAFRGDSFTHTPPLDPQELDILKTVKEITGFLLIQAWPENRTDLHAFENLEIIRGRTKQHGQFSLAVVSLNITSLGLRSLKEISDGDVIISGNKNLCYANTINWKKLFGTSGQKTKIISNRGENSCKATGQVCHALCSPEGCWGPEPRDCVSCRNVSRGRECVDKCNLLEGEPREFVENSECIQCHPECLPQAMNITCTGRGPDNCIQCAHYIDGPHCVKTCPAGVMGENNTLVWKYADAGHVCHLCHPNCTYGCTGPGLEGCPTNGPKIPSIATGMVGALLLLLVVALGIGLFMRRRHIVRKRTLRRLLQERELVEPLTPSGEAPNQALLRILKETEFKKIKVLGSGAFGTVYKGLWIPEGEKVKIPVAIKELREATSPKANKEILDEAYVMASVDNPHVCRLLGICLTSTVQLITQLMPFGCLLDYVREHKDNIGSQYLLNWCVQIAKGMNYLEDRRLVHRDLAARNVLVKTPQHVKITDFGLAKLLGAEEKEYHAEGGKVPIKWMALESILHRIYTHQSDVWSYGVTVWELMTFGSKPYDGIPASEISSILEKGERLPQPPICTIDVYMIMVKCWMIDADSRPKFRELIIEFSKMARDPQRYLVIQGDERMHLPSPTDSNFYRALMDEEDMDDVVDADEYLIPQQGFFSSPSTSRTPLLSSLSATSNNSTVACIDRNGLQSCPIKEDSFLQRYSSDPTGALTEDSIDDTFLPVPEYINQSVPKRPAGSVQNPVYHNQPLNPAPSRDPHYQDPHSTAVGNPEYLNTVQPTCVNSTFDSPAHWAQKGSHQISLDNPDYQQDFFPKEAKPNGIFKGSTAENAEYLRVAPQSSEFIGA
pIC50 field: float, defined as -log10 of concentration (mol/L).

[[record]]
test_smiles = "O=C(O)CNc1c(Br)cccc1Nc1ncnc2ccncc12"
study_target = "Epidermal growth factor receptor (Homo sapiens)"
numeric_result = 8.82

[[record]]
test_smiles = "Brc1cccc(Nc2ncnc3ccncc23)c1NCCN1CCOCC1"
study_target = "Epidermal growth factor receptor (Homo sapiens)"
numeric_result = 8.49

[[record]]
test_smiles = "Nc1ccccc1Nc1ncnc2ccncc12"
study_target = "Epidermal growth factor receptor (Homo sapiens)"
numeric_result = 6.60

[[record]]
test_smiles = "OCCN(CCO)CCNc1c(Br)cccc1Nc1ncnc2ccncc12"
study_target = "Epidermal growth factor receptor (Homo sapiens)"
numeric_result = 8.03

[[record]]
test_smiles = "Nc1c(F)cccc1Nc1ncnc2ccncc12"
study_target = "Epidermal growth factor receptor (Homo sapiens)"
numeric_result = 6.07

[[record]]
test_smiles = "OCCNc1c(Br)cccc1Nc1ncnc2ccncc12"
study_target = "Epidermal growth factor receptor (Homo sapiens)"
numeric_result = 9.61

[[record]]
test_smiles = "COc1cc2c(Nc3cccc(Br)c3)ncnc2cn1"
study_target = "Epidermal growth factor receptor (Homo sapiens)"
numeric_result = 8.58


Which pIC50 is reported with Epidermal growth factor receptor (Homo sapiens) for this entry: O=C(O)CCNc1c(Br)cccc1Nc1ncnc2ccncc12 ? 9.21
